pIC50: −log10 of the molar value.
Let's go through some pIC50 measurements on Tyrosine-protein kinase ABL1 (Homo sapiens) together.
Sequence (P00519 whole entry): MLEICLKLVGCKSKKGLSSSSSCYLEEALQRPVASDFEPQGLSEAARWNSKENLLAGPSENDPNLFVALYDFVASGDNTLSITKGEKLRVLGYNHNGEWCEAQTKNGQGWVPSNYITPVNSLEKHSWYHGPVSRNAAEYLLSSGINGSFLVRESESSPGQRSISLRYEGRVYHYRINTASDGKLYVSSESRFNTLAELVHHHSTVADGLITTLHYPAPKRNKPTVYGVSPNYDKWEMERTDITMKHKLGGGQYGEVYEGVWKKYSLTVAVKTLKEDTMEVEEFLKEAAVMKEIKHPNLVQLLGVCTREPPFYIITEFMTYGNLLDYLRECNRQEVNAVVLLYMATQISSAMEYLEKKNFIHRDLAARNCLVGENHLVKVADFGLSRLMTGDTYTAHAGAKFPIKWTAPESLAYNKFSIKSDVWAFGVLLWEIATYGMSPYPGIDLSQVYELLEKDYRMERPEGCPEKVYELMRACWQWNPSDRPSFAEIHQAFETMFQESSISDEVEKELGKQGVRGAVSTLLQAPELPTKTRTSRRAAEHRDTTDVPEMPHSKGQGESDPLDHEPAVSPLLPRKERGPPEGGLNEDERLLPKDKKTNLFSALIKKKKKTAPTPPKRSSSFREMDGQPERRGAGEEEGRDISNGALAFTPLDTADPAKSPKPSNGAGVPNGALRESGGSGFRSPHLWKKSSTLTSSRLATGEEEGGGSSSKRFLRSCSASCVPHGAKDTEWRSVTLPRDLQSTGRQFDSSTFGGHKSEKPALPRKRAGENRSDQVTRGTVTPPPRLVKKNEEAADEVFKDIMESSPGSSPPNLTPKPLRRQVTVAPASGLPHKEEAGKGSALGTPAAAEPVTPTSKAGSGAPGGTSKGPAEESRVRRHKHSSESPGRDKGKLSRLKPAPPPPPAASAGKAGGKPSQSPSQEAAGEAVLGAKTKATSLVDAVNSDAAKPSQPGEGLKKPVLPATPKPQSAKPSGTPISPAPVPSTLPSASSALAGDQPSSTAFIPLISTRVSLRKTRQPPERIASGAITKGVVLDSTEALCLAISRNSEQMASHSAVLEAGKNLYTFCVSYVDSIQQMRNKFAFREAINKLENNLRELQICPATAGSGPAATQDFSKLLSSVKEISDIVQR
measure: pIC50

> print(dat)
                                     smiles                               measured.on  reading
1  Cc1ccc(NC(=O)c2ccc(CN)cc2)cc1Nc1nccc(-c2cccnc2)n1  Tyrosine-protein kinase ABL1 (Homo sapiens)   < 4.70
2  C=C(C)C(=O)NCc1ccc(C(=O)Nc2ccc(C)c(Nc3nccc(-c4cccnc4)n3)c2)cc1  Tyrosine-protein kinase ABL1 (Homo sapiens)   < 4.70
3  Cc1ccc(NC(=O)c2ccc(CNC(=O)CCl)cc2)cc1Nc1nccc(-c2cccnc2)n1  Tyrosine-protein kinase ABL1 (Homo sapiens)   < 4.70

----------
Let's go through some IC50 measurements on Mast/stem cell growth factor receptor Kit (Homo sapiens, UniProt P10721) together.
Sequence (P10721 whole entry): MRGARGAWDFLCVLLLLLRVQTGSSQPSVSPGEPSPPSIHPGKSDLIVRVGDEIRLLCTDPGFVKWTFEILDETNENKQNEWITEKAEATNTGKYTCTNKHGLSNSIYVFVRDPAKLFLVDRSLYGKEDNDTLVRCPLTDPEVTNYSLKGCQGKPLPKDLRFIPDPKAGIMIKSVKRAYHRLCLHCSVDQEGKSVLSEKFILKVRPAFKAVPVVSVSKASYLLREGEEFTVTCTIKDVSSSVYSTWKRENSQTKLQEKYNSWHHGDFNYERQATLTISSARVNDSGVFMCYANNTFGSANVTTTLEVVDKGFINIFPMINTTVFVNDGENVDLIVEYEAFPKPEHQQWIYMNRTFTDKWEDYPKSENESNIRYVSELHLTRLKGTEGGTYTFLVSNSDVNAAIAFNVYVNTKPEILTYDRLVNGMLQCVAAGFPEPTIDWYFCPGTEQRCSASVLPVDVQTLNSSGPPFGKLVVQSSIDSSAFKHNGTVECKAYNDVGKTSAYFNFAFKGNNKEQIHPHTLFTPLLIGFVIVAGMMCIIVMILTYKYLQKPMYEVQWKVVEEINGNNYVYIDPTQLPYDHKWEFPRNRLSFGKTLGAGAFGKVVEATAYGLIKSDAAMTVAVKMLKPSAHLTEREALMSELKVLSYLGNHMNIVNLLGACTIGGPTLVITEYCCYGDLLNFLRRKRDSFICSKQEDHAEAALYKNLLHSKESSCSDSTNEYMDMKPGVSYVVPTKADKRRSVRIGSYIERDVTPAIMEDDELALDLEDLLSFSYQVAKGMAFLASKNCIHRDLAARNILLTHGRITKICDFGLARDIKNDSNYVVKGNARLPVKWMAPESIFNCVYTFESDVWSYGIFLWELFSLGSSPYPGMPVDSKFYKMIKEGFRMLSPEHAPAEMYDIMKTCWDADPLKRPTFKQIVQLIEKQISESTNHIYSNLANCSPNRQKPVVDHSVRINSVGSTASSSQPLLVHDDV
measure: IC50 (nM)

> print(dat)
                                     smiles  measure  unit.abbreviation  reading
1  Cc1ccc(NC(=O)c2ccc(CN)cc2)cc1Nc1nccc(-c2cccnc2)n1     IC50                 nM      788
2  C=C(C)C(=O)NCc1ccc(C(=O)Nc2ccc(C)c(Nc3nccc(-c4cccnc4)n3)c2)cc1     IC50                 nM     2740
3  Cc1ccc(NC(=O)c2ccc(CNC(=O)CCl)cc2)cc1Nc1nccc(-c2cccnc2)n1     IC50                 nM      788
